target: Adenosine A2 receptor (Rattus norvegicus, UniProt P29276+P30543)

COMPOUND	Ki (nM)
COc1cc(OC)cc(C(CNc2ncnc3c2ncn3C2O[C@H](CO)[C@@H](O)[C@H]2O)c2c(C)cccc2C)c1 (some centres undefined)	19.5
OC[C@H]1OC(n2cnc3c(NCC(c4ccccc4)c4c(Cl)cccc4Cl)ncnc32)[C@H](O)[C@@H]1O (some centres undefined)	19
COc1cc(OC)cc(C(CNc2ncnc3c2ncn3[C@@H]2O[C@H](CO)[C@@H](O)[C@H]2O)c2ccccc2C)c1 (single isomer, unassigned; (+))	6.2
Cc1cccc(C)c1C(CNc1ncnc2c1ncn2C1O[C@H](CO)[C@@H](O)[C@H]1O)c1ccccc1 (some centres undefined)	62

###

This section lists Ki readings for Adenosine A2 receptor (Rattus norvegicus, UniProt P29276+P30543).
TEST READOUT: Ki

COMPOUND	MEASURED
COc1cc(OC)cc(C(CNc2ncnc3c2ncn3C2O[C@H](CO)[C@@H](O)[C@H]2O)c2ccccc2)c1 (stereo partly drawn)	6.1 nM
OC[C@H]1OC(n2cnc3c(NCC(c4cccc(Cl)c4)c4cccc(Cl)c4)ncnc32)[C@H](O)[C@@H]1O (stereo partly drawn)	6 nM
Cc1cccc(C(CNc2ncnc3c2ncn3C2O[C@H](CO)[C@@H](O)[C@H]2O)c2cccc(C)c2)c1 (stereo partly drawn)	18.8 nM

###

molecular target: Adenosine A2 receptor (Rattus norvegicus, UniProt P29276+P30543)

COMPOUND	TESTED ON	Ki
COc1cc(OC)cc(C(CNc2ncnc3c2ncn3[C@@H]2O[C@H](CO)[C@@H](O)[C@H]2O)c2ccccc2C)c1 (stereo in doubt; 16)	Adenosine A2 receptor (Rattus norvegicus, UniProt P29276+P30543)	4.4 nM
Nc1nc(Nc2ccccc2)nc2c1ncn2[C@@H]1O[C@H](CO)[C@@H](O)[C@H]1O	Adenosine A2 receptor (Rattus norvegicus, UniProt P29276+P30543)	116 nM
OC[C@H]1O[C@@H](n2cnc3c(NCc4cccc5ccccc45)ncnc32)[C@H](O)[C@@H]1O	Adenosine A2 receptor (Rattus norvegicus, UniProt P29276+P30543)	9.4 nM
COc1cc(OC)cc(C(CNc2ncnc3c2ncn3[C@@H]2O[C@H](CO)[C@@H](O)[C@H]2O)c2ccccc2C)c1 (single isomer, unassigned)	Adenosine A2 receptor (Rattus norvegicus, UniProt P29276+P30543)	3.1 nM

###

Protein target, amino acids: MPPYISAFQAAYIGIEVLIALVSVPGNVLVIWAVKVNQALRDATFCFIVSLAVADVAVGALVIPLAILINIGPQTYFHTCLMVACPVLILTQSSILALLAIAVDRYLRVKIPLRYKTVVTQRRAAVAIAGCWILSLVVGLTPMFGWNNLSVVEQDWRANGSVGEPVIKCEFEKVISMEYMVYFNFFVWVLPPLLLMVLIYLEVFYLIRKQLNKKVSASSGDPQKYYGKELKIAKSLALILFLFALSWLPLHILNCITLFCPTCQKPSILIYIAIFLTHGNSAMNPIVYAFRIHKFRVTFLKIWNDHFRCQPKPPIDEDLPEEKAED
pKi: −log10 of the molar value.
pKi class ranges: low class: < 7; middle class: ≥ 7 and < 8; high class: ≥ 8

COMPOUND	DISCRETE LABEL
COc1cc(OC)cc(C(CNc2ncnc3c2ncn3[C@@H]2O[C@H](CO)[C@@H](O)[C@H]2O)c2ccccc2C)c1 (single isomer, unassigned; (+))	low class
OC[C@H]1OC(n2cnc3c(NCC(c4cccc(Cl)c4)c4cccc(Cl)c4)ncnc32)[C@H](O)[C@@H]1O (some centres undefined)	high class
COc1cc(OC)cc(C(CNc2ncnc3c2ncn3C2O[C@H](CO)[C@@H](O)[C@H]2O)c2ccccc2)c1 (some centres undefined)	middle class
COc1cc(OC)cc(C(CNc2ncnc3c2ncn3C2O[C@H](C(=O)NC3CC3)[C@@H](O)[C@H]2O)c2ccccc2C)c1 (some centres undefined)	low class
Cc1cccc(C)c1C(CNc1ncnc2c1ncn2C1O[C@H](CO)[C@@H](O)[C@H]1O)c1ccccc1 (some centres undefined)	low class
CCNC(=O)[C@H]1OC(n2cnc3c(NCC(c4cc(OC)cc(OC)c4)c4ccccc4C)ncnc32)[C@H](O)[C@@H]1O (some centres undefined)	low class

###

This section lists pKi readings for Adenosine receptor A1 (Rattus norvegicus).
pKi: −log10 of the molar value.

MOLECULE	TESTED ON	pKi
Cc1cccc(C(CNc2ncnc3c2ncn3C2O[C@H](CO)[C@@H](O)[C@H]2O)c2cccc(C)c2)c1 (stereo partly drawn)	Adenosine receptor A1 (Rattus norvegicus)	8.03
COc1cc(OC)cc(C(CNc2ncnc3c2ncn3[C@@H]2O[C@H](CO)[C@@H](O)[C@H]2O)c2ccccc2C)c1 (stereo in doubt; 16)	Adenosine receptor A1 (Rattus norvegicus)	6.85
COc1cc(OC)cc(C(CNc2ncnc3c2ncn3[C@@H]2O[C@H](CO)[C@@H](O)[C@H]2O)c2ccccc2C)c1 (single isomer, unassigned)	Adenosine receptor A1 (Rattus norvegicus)	6.93
